Biological target: Renin (Homo sapiens, UniProt P00797)
Sequence (P00797 whole entry): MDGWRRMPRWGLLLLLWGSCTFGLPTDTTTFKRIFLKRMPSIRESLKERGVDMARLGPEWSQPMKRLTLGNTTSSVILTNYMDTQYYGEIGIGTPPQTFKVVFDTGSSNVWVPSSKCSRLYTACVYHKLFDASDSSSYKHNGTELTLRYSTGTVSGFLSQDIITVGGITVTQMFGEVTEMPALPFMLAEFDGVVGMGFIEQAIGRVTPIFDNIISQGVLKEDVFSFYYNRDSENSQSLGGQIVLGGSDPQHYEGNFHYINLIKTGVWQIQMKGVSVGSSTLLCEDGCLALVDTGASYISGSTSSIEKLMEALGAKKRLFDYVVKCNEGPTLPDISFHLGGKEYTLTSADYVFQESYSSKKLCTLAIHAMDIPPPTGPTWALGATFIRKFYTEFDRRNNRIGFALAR
Assay: Ability to inhibit the human recombinant renin aspartic protease enzyme
IC50 by entry:

>>> result("O=c1cc(-c2ccccc2)oc(O)c1C(CC1CC1)SCc1ccccc1 (configuration not stated)")
"> 10 µM"

Please turn your attention to the following entry.
Problem: Need IC50 of CC(C)CC(SC1CCCC1)c1c(O)cc(-c2ccccc2)oc1=O (configuration not stated) , thanks.
Solution: > 10 µM

---

Molecular target: Human immunodeficiency virus type 1 protease (Human immunodeficiency virus 1)
Assay: Ability to inhibit purified recombinant HIV-1 protease.
# pIC50 per record follows
Answer as the number alone; pIC50 is minus log10 of concentration in mol/L.

Previously resolved entries follow.
>>> numeric_result("CC(C)CC(SC1CCCCC1)c1c(O)cc(-c2ccccc2)oc1=O (stereo not drawn)")
6.49
>>> numeric_result("CC(C)CC(SCC1CCCCC1)c1c(O)cc(-c2ccccc2)oc1=O (stereo not drawn)")
6.07
>>> numeric_result("O=c1cc(-c2ccccc2)oc(O)c1CSc1ccccc1")
4.07
>>> numeric_result("O=c1cc(-c2ccccc2)oc(O)c1C(Sc1ccccc1)c1ccc2ccccc2c1 (stereo not drawn)")
5.11

Problem: Reported pIC50 for O=c1cc(-c2ccccc2)oc(O)c1C(CC1CC1)SCc1ccccc1 (stereo not drawn) : what is it?
Solution: 7.08

Problem: Repeat with CC(C)CC(SC1CCCC1)c1c(O)cc(-c2ccccc2)oc1=O (stereo not drawn)
Solution: 7.24

Problem: Field entry: CC(C)(C)CC(SC1CCCCC1)c1c(O)cc(-c2ccccc2)oc1=O (stereo not drawn)
Solution: 6.52

Problem: Another compound to look at: O=c1cc(-c2ccccc2)oc(O)c1C(Sc1ccccc1)C1CCCCC1 (stereo not drawn)
Solution: 5.61
